target: mTOR/GbL/Raptor (mTORC1) (Homo sapiens, UniProt P42345); test: mTOR/GbL/Raptor (mTORC1) ELISA assay; settings: phosphorylation of 4E-BP1; 0.2 nM mTORC1, 10 μM ATP; read-out: IC50 in this assay (mTORC1 ELISA)
pIC50: −log10 of the molar value.
In this section, each of the compounds is paired with its reported pIC50.

Answered examples (5):
Request: What value of pIC50 has been recorded for this entry: COc1c(O)ccc2c(N3CCOc4ccc(-c5ccc6nc(C)[nH]c6c5)cc4C3)ncnc12 [Example 164]
Response: 6.00 to 6.60

Request: Let us now turn to C=CCc1c(C)nc(CN(C)C)nc1N1CCOc2ccc(-c3cnc4sc(N)nc4c3)cc2C1 [Example 670]
Response: 7.30 to 8.00

Request: Let us now turn to CC1(C)CCc2ncnc(N3CCOc4ccc(-c5cnc(N)c(S(=O)(=O)NCCCO)c5)cc4C3)c2C1 [Example 375]
Response: ≥ 8.00

Request: Let us now turn to CCNc1nc2ccc(-c3ccc4c(c3)CN(c3cc(Nc5ccc(OC)cc5)ncn3)CCO4)cc2[nH]1 [Example 276]
Response: 6.00 to 6.60

Request: Let us now turn to Cc1nc2ncc(-c3ccc4c(c3)CN(c3ncnc5c3CC(C)(C)C=C5)CCO4)cc2[nH]1 [Example 478]
Response: ≥ 8.00

***
Request: What value of pIC50 has been recorded for this entry: CCNc1nc2ncc(-c3ccc4c(c3)CN(c3ncnc5c3CC(C)(C)CC5)CCO4)cc2[nH]1 [Example 264]
Response: ≥ 8.00

Request: Let us now turn to Cc1nc2cc(-c3ccc4c(c3)CN(c3nc(CN(C)C)nc(C)c3CC(C)C)CCO4)ccc2[nH]1 [Example 655]
Response: 6.00 to 6.60

----------
In this section, each of the compounds is paired with its reported IC50.
biological target: mTOR/GbL/Raptor (mTORC1) (Homo sapiens); experiment: mTOR/GbL/Raptor (mTORC1) ELISA assay; details: phosphorylation of 4E-BP1; 0.2 nM mTORC1, 10 μM ATP; read-out: IC50 in this assay (mTORC1 ELISA)

Answered examples (5):
Request: What value of IC50 has been recorded for this entry: CC1(C)CCc2ncnc(N3CCOc4ccc(-c5cnc(N)c(S(=O)(=O)NC6CC7CCC(C6)N7)c5)cc4C3)c2C1 (stereo not shown) [Example 425]
Response: 10 to 50 nM

Request: Let us now turn to CC1=Cc2ncnc(N3CCOc4ccc(-c5cnc(N)c(S(=O)(=O)NC[C@H]6CCN(C)C6)c5)cc4C3)c2CC1(C)C [Example 424]
Response: 50 to 250 nM

Request: Let us now turn to CCSc1nc2c(c(N3CCOc4ccc(-c5ccc6nc(C)[nH]c6c5)cc4C3)n1)CCC2 [Example 54]
Response: 250 to 1000 nM

Request: Let us now turn to Nc1nc2ncc(-c3ccc4c(c3)CN(c3ncnc5ccc(I)cc35)CCO4)cc2[nH]1 [Example 183]
Response: ≤ 10 nM

Request: Let us now turn to Cc1nc2ccc(-c3ccc4c(c3)CN(c3ncnc5c3CCCC5)CCO4)cc2[nH]1 [Example 46]
Response: 250 to 1000 nM

***
Request: What value of IC50 has been recorded for this entry: Cc1nc2ccc(-c3ccc4c(c3)CN(c3ncnc5ccc(S(C)(=O)=O)cc35)CCO4)cc2[nH]1 [Example 50]
Response: 250 to 1000 nM

Request: Let us now turn to Cc1nc2ccc(-c3ccc4c(c3)CN(c3ncnc5ccc(OCCCN(C)C)cc35)CCO4)cc2[nH]1 [Example 161]
Response: 1000 to 2000 nM

Sourced from patent US8648066B2
